ASSAY OVERVIEW: wild-type TIM10 yeast growth inhibition – luminescence, uHTS, counter-screen for tim10-1 yeast inhibitor project, primary screen (AID 463195);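 note: wild-type TIM10 isogenic control strain grown at permissive 25 °C; 0% = DMSO yeast wells and 100% = minimal medium wells without yeast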
CONDITIONS USED: S. cerevisiae TIM10 strain growth, BacTiter-Glo luminescence, 24 h; at 10 µM; hits give high values
The campaign covered roughly 330,000 compounds. About 4,600 (1.4%) were called active. For the sample, actives were picked, then their nearest neighbours and some compounds at random.
Listing of entries alongside the reported inhibition.
PROPERTY NAME: inhibition (%)

In [3]: df
Out[3]:
                                   compound  observed_value
0  CCOc1ccc(S(=O)(=O)NCCC(=O)N2CCCCCCC2)cc1           -3.91
1  CCOc1ccc(N2C(=O)Nc3ccccc3C2(O)C(=O)NCc2ccco2)cc1 (stereo not given)           -6.83
2  O=C(CN1CCN(S(=O)(=O)c2ccc3ccccc3c2)CC1)NC(=O)NC1CCCCC1            44.2
3  CC(C)(C)n1ncc2c(=O)n(Cc3c(Cl)cccc3Br)cnc21            5.55
4        O=S(=O)(NN=C1CCCCCCC1)c1ccc(Br)cc1            17.3
5  CCOCCCNC(=O)c1cn(CC(C)C)c(=O)c2c1c1ccccc1n2C            3.76
6  Cc1c(CNCCc2ccccc2)c(C(=O)O)c(C)n1-c1ccccc1           -4.69
7  O=C(CN1CCN(S(=O)(=O)c2ccc(F)cc2)CC1)NC1CC1           0.605
8  COC(=O)[C@@H]1CC[C@H](C)[C@@H](c2ccc(C)cc2)N1C(=O)c1ccc(/C=N/O[C@H](C)c2cn([C@@H]3COC[C@H]3O)nn2)cc1          -0.068
9  O=C1/C(=C/c2cccs2)CCC1C1CCCC1 (stereo not given)           -11.5

----------
ASSAY OVERVIEW: wild-type TIM10 yeast growth inhibition – luminescence, uHTS, counter-screen for tim10-1 yeast inhibitor project, primary screen (AID 463195);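 note: wild-type TIM10 isogenic control strain grown at permissive 25 °C; 0% = DMSO yeast wells and 100% = minimal medium wells without yeast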
CONDITIONS USED: S. cerevisiae TIM10 strain growth, BacTiter-Glo luminescence, 24 h; at 10 µM
Screen size: about 330,000 compounds; about 4,600 (1.4%) were called active.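 How the source made its calls: active means inhibition of 40% or more at the single tested concentration; inactive means the rest.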 This excerpt belongs to a sample that is enriched for actives.
Outcome codes: active, inactive

>>> df
                                    compound  category
 0  C[C@]12CC[C@H](O)CC1=CCC1C2CC[C@@]2(C)C1CC[C@@H]2NC(=O)CCC(=O)O (stereo partly specified)  inactive
 1  N#Cc1ccccc1NC(=O)COc1c(Br)cc(Br)c2cccnc12  inactive
 2  CNC(=S)NNC(=O)c1oc2nc(-c3ccccc3)cc(-c3ccco3)c2c1N  inactive
 3  CN1CCN(c2ccccc2NC(=O)COc2ccc(C3CCCCC3)cc2)CC1    active
 4      Cc1ccc(OCc2n[nH]c(=S)n2-c2ccccc2)cc1  inactive
 5  Cc1cccc(C(=O)NCC(=O)OCC(=O)N(C)CC(=O)Nc2ccccc2Cl)c1  inactive
 6         CCn1c(SCC(=O)NC2CC2)nnc1-c1ccncc1  inactive
 7  CC(=O)N/C(=C\c1ccc(F)cc1)C(=O)NC(Cc1ccccc1)C(=O)O (stereo unspecified)  inactive
 8  CCN(CC)P(=O)(Nc1ccc(SC(F)F)cc1)c1ccc(N(C)C)cc1NC(=O)c1ccco1 (stereo unspecified)  inactive
 9  CCC(CC)C(=O)Nc1c2c(nn1-c1ccc(C)cc1)CS(=O)(=O)C2  inactive
10     CCN(CC)C(=O)c1sc2nc(-c3ccccc3)ccc2c1N  inactive
11  CC[C@]12c3[nH]c4cc(CCC(=O)N(C)C)ccc4c3CCN1C(=O)[C@@H](CC(=O)NCc1ccco1)C[C@@H]2C(=O)N1CCN(C(=O)c2ccco2)CC1  inactive
12                   CN1CCC2(CC1)NC(=O)NC2=O  inactive
13  CCN(CCCCOC(=O)c1ccc(OC)c(OC)c1)C(C)Cc1ccc(OC)cc1 (stereo unspecified)  inactive
14                   CCOCCn1[nH]c2ccccc2c1=O  inactive
15  Cn1c(=O)oc2cc(S(=O)(=O)NCCC(=O)NCc3ccccc3Cl)ccc21  inactive
16  CS(=O)(=O)c1sc2nc(-c3ccccc3)cc(-c3ccccc3)c2c1N    active
17  COc1ccc(N2CC(C(=O)NCCS(=O)(=O)N3CCN(c4ccccc4)CC3)CC2=O)cc1 (stereo unspecified)  inactive
18   Cc1ccc(C(C)C)cc1OCC(=O)Nc1ccccc1N1CCCC1  inactive
19  CN(c1ccc(OCC(=O)NC2=NCCS2)cc1)S(=O)(=O)c1ccc(F)cc1  inactive
20             O=C(NCc1cccnc1)c1cnc2ccccc2n1  inactive
